# credit: PubChem BioAssay (NCI)

- System: MCF7 breast
- assay: NCI-60 one-dose screen, 48 h
- cond: 10 µM unless noted
Compounds without any hit were thinned out: in the full panel of roughly 83,000, 20% have a hit. Active and inactive are the calls of the source. The calls were made as follows: active = growth percent below 10; inactive = the rest.
Possible outcomes: True = active, False = inactive

molecule_smiles: COC(=O)c1cccc(NC2=C(Cl)C(=O)C(C)=C(C)C2=O)c1
label_class: False

molecule_smiles: CN(C)CCCOc1ccc(C(=C(c2ccccc2)C2CCCC2)c2ccc(OCCCN(C)C)cc2)cc1
label_class: True

molecule_smiles: CN1CCN(c2ccc(Nc3nc(NCCNC(=O)c4ccccc4)c4sccc4n3)cc2)CC1
label_class: False

molecule_smiles: CN1CCN(c2ccc(Nc3nc(NCCNS(=O)(=O)c4ccc5ccccc5c4)c4sccc4n3)cc2)CC1
label_class: False

molecule_smiles: Fc1ccc(-c2cn3c(-c4c[nH]c5ccc(Br)cc45)csc3n2)cc1
label_class: False

###

- Test system: SK-MEL-2 melanoma
- assay: NCI-60 one-dose screen, 48 h (100 = growth as untreated, 0 = no growth, -100 = all killed)
- cond: 10 µM unless noted
Compounds without any hit were thinned out: in the full panel of roughly 83,000, 20% have a hit.
Recorded growth by entry
observation_type: growth (%)

molecule: CN1CCN(c2ccc(Nc3nc(NCCCNS(=O)(=O)c4ccc(C(F)(F)F)cc4)c4sccc4n3)cc2)CC1
reading: -91
--
molecule: C#C[C@]1(O)CC[C@H]2[C@@H]3CC=C4c5sc(N6CCN(C)CC6)nc5CC[C@]4(C)[C@H]3CC[C@@]21C
reading: 36.8
--
molecule: O=C(/C=C/c1cccc(F)c1)c1cccc(OCCCOc2cccc(C(=O)/C=C/c3cccc(F)c3)c2)c1
reading: 97.3
--
molecule: O=C(N/N=C\c1ccc([N+](=O)[O-])cc1)c1ccc2nc(-c3ccc(Br)cc3)[nH]c2c1
reading: 51.9
--
molecule: CN1CCC[C@]2(C)[C@H]3CC[C@@H]4[C@@H]5[C@H]6OC[C@@]5(CCC6(C)C)CC[C@@]4(C)[C@]3(C)CC[C@H]2C1(C)C
reading: 108
--
molecule: CC(=O)OC[C@@]12Oc3c(cccc3-c3ccc(O)c4c3O[C@]3(COC(C)=O)C(=C4O)C(=O)C[C@H](C)[C@@H]3OC(C)=O)C(O)=C1C(=O)C[C@H](C)[C@@H]2OC(C)=O
reading: -20.4
--
molecule: O=S(=O)(Oc1ccc(-c2cn3ccoc3n2)cc1)c1cccc(C(F)(F)F)c1
reading: 104
--
molecule: CCCCSC1=C(Cl)CN(c2ccc(Cl)cc2)C1=O
reading: 103
--
molecule: C=C(C)[C@@H]1CC[C@]2(COCCCNCCCN)CC[C@]3(C)[C@H](CC[C@@H]4[C@@]5(C)CC[C@H](O)C(C)(C)[C@@H]5CC[C@]43C)[C@@H]12
reading: 99.1
--
molecule: CN1CCN(c2ccc(Nc3nc(NCCCNS(=O)(=O)c4ccc(F)cc4)c4sccc4n3)cc2)CC1
reading: 107
--
molecule: O=C1C(SCc2ccccc2)=C(Cl)CN1c1ccccc1
reading: 110
--
molecule: CCOC(=O)C(=O)Nc1ccc2c(ccn2C(=O)c2cccc(F)c2)c1
reading: 99.8
--
molecule: COc1ccc2c(c1)C=CC1(O2)Oc2ccc(OC)cc2C=C1C (stereo unspecified)
reading: 47.3
--
molecule: Cn1c(SCC(=O)c2ccc(F)cc2)nc2ccccc2c1=O
reading: 105
--
molecule: COc1ccc(C2CC(c3cccc(OCCCCOc4cccc(C5=NOC(c6ccc(OC)cc6)C5)c4)c3)=NO2)cc1 (stereo unspecified)
reading: 103
--
molecule: C=C(C)[C@@H]1CC[C@]2(COP(=O)(OCC)OCC)CC[C@]3(C)[C@H](CC[C@@H]4[C@@]5(C)CC[C@H](OP(=O)(OCC)OCC)C(C)(C)[C@@H]5CC[C@]43C)[C@@H]12
reading: 67.9

###

- Test system: ACHN renal
- assay: NCI-60 one-dose screen, 48 h (100 = growth as untreated, 0 = no growth, -100 = all killed)
- cond: 10 µM unless noted
About 83,000 compounds went through this panel and 20% of them were active in at least one assay; those are over-represented in the sample as a whole.
Recorded growth by entry

molecule: N#CC1=C2NCCCNc3oc(nc3C#N)Cc3ccccc3CC(=N1)O2
target_entity: ACHN renal
growth, %: 87.4

molecule: CCOP(=O)(OCC)OC[C@]12CCC(C)(C)C[C@H]1C1=CC[C@@H]3[C@@]4(C)CC[C@H](OP(=O)(OCC)OCC)C(C)(C)[C@@H]4CC[C@@]3(C)[C@]1(C)CC2
target_entity: ACHN renal
growth, %: 67.2

molecule: O=C(CSc1nc2ccccc2c(=O)n1-c1ccccc1)Nc1ccc(S(=O)(=O)Nc2nccs2)cc1
target_entity: ACHN renal
growth, %: 71.9

molecule: CN1CCN(Cc2ccc(/C=N/Nc3ccnc4cc(Cl)ccc34)cc2)CC1
target_entity: ACHN renal
growth, %: 90.5

molecule: CC(C)Sc1nc(-c2ccccc2)c(C#N)c(N2CCOCC2)n1
target_entity: ACHN renal
growth, %: -6.39

molecule: CS(=O)(=O)c1ccc(/C(=N/N=C(N)N)c2ccc(Cl)cc2)cc1
target_entity: ACHN renal
growth, %: 99.1

molecule: COC(=O)N1CCN(CCNCc2ccc(NC(=O)c3ccc(C)c(C#Cc4cnc5cccnn45)c3)cc2C(F)(F)F)CC1
target_entity: ACHN renal
growth, %: 29.6

molecule: COc1cc(C(C)=C(c2ccc(OCCN(C)C)cc2)c2ccc(OCCN(C)C)cc2)ccc1F
target_entity: ACHN renal
growth, %: 105

molecule: Clc1ccc(CSc2nnc(-c3ccc(Cl)cc3)n2-c2ccccc2)cc1
target_entity: ACHN renal
growth, %: 55.5

molecule: Cc1ccc2c(n1)C(=O)C(Cl)=C(Nc1ccc(C)c(C)c1)C2=O
target_entity: ACHN renal
growth, %: 57

molecule: C#C[C@]1(O)CC[C@H]2[C@@H]3CC=C4c5sc(N(C)c6ccccc6)nc5CC[C@]4(C)[C@H]3CC[C@@]21C
target_entity: ACHN renal
growth, %: 92.1

molecule: Cc1ccc(S(=O)(=O)NCCCNc2nccc(-c3[nH]c(-c4ccccc4)nc3-c3ccc(F)c(O)c3)n2)cc1
target_entity: ACHN renal
growth, %: 85.8

molecule: COC(=O)CNC(=O)c1cccc(-c2cc(=O)c3c(OC)c(OC)c(OC)cc3o2)c1
target_entity: ACHN renal
growth, %: 98.9

molecule: CC(C)[C@H]1c2[nH]c3ccccc3c2C[C@H]2C(=O)N(CCCCCCC(=O)NO)CC(=O)N12
target_entity: ACHN renal
growth, %: 98.2

molecule: CC[C@]12C=CCN3CC[C@]4(C(=C(C(=O)OC)C1)Nc1cc5c(cc14)[C@@H]1[C@H](O5)[C@@H](O)[C@@]4(CC)CC(C(=O)OC)=C5Nc6cc(O)ccc6[C@@]56CCN1C46)C32 (stereo partly drawn)
target_entity: ACHN renal
growth, %: -14.3

molecule: CS(=O)(=O)c1ccc(/C(=N/N=C(N)N)c2ccc(F)cc2)cc1
target_entity: ACHN renal
growth, %: 98

molecule: CCOC(=O)c1c(NC(=O)c2ccc(C(F)(F)F)cc2)sc2c3c(ccc12)OCN(C)C3
target_entity: ACHN renal
growth, %: -14.5

molecule: CC(O)c1cccc(/C(N)=N/C(N)=N/c2nc3ccccc3s2)c1 (stereo not drawn)
target_entity: ACHN renal
growth, %: 86.6

###

- Tested on: NCI-H322M lung
- assay: NCI-60 one-dose screen, 48 h (100 = growth as untreated, 0 = no growth, -100 = all killed)
- cond: 10 µM unless noted
About 83,000 compounds went through this panel and 20% of them were active in at least one assay; those are over-represented in the sample as a whole.
Recorded growth by entry

molecule: CCCCSC1=C(Cl)CN(c2ccc(Cl)cc2)C1=O
target_entity: NCI-H322M lung
growth (%): 107

molecule: N#C/C(=C\c1ccc(-c2ccc(Cl)c(Cl)c2)o1)C(=O)Nc1ncc(Cc2ccc(Cl)cc2)s1
target_entity: NCI-H322M lung
growth (%): 33

molecule: CN(C)c1cccc2c(S(=O)(=O)Nc3cccc(-c4csc(NC(=O)CCCCCN5CCN(CCO)CC5)n4)c3)cccc12
target_entity: NCI-H322M lung
growth (%): 88.2

molecule: CC1=C(C)C(=O)C(Nc2ccc3c(c2)OCO3)=C(Br)C1=O
target_entity: NCI-H322M lung
growth (%): 96.5

molecule: COc1ccc2c(c1)c(-c1nn3cc(-c4ccncc4)nc3s1)cn2C
target_entity: NCI-H322M lung
growth (%): 85.4

molecule: O=C(/C=C/c1ccc(F)cc1)Nc1cccc2cccnc12
target_entity: NCI-H322M lung
growth (%): 101

molecule: COc1cc2c3c(cc4c5c(ccc4c3c1OC)OCO5)N(CCN(C)C)C2=O
target_entity: NCI-H322M lung
growth (%): 0.11

molecule: CC/C(=C(/c1ccc(Cl)cc1)c1ccc(OCCN)cc1)c1ccccc1
target_entity: NCI-H322M lung
growth (%): 108

molecule: COC(=O)[C@@H](Cc1c[nH]c2ccccc12)NC(=O)CCCCOc1cc(O)c2c(=O)cc(-c3ccccc3)oc2c1
target_entity: NCI-H322M lung
growth (%): 95.8

molecule: CC1=C(C)C(=O)C(Nc2ccc(C)c(C)c2)=C(Br)C1=O
target_entity: NCI-H322M lung
growth (%): 102

molecule: COC(=O)c1ccc(NC2=C(Cl)C(=O)C(C)=C(C)C2=O)cc1
target_entity: NCI-H322M lung
growth (%): 99.6

molecule: CCCCc1nc2c(N)nc3ccccc3c2n1Cc1cccc(CN)c1
target_entity: NCI-H322M lung
growth (%): 81.2

molecule: CC1(C)CC[C@]2(C(=O)O)CC[C@]3(C)C(=CC[C@@H]4[C@@]5(C)CC[C@H](NOCCCN)C(C)(C)[C@@H]5CC[C@]43C)[C@@H]2C1
target_entity: NCI-H322M lung
growth (%): 94

molecule: CN1CCN(c2ccc(Nc3nc(NCCCNS(=O)(=O)c4cccc(F)c4)c4sccc4n3)cc2)CC1
target_entity: NCI-H322M lung
growth (%): 68

molecule: COc1ccc(CC(C)=C(c2ccc(OCCN3CCCC3)cc2)c2ccc(OCCN3CCCC3)cc2)cc1
target_entity: NCI-H322M lung
growth (%): -75.7

molecule: C#CCOc1ccc(-c2csc(NC(=O)C=C)n2)cc1NS(=O)(=O)c1cccc2c(N(C)C)cccc12
target_entity: NCI-H322M lung
growth (%): 87.6

molecule: C#Cc1nc(/C=C/C(=O)NO)cs1
target_entity: NCI-H322M lung
growth (%): 82.5

molecule: CCOC(=O)c1c(NCC(=O)Nc2cccc([N+](=O)[O-])c2)sc(C(C)=O)c1C
target_entity: NCI-H322M lung
growth (%): 95

molecule: CCOC(=O)c1ccc(NC2=C(Cl)C(=O)c3nc(C)ccc3C2=O)cc1
target_entity: NCI-H322M lung
growth (%): 96.7

molecule: O=C(O)CC1CCN(c2ccc3nnc(Cl)n3n2)CC1
target_entity: NCI-H322M lung
growth (%): 96.2

molecule: CCCCN1C(=O)/C(=c2\sc3n(c2=O)C2C(NN=3)N(CC)C(=O)N2CC)c2cc(C)ccc21 (stereo unspecified)
target_entity: NCI-H322M lung
growth (%): 88.1
